measurement target: Metabotropic glutamate receptor 5 (Rattus norvegicus)
Sequence (P31424 whole entry): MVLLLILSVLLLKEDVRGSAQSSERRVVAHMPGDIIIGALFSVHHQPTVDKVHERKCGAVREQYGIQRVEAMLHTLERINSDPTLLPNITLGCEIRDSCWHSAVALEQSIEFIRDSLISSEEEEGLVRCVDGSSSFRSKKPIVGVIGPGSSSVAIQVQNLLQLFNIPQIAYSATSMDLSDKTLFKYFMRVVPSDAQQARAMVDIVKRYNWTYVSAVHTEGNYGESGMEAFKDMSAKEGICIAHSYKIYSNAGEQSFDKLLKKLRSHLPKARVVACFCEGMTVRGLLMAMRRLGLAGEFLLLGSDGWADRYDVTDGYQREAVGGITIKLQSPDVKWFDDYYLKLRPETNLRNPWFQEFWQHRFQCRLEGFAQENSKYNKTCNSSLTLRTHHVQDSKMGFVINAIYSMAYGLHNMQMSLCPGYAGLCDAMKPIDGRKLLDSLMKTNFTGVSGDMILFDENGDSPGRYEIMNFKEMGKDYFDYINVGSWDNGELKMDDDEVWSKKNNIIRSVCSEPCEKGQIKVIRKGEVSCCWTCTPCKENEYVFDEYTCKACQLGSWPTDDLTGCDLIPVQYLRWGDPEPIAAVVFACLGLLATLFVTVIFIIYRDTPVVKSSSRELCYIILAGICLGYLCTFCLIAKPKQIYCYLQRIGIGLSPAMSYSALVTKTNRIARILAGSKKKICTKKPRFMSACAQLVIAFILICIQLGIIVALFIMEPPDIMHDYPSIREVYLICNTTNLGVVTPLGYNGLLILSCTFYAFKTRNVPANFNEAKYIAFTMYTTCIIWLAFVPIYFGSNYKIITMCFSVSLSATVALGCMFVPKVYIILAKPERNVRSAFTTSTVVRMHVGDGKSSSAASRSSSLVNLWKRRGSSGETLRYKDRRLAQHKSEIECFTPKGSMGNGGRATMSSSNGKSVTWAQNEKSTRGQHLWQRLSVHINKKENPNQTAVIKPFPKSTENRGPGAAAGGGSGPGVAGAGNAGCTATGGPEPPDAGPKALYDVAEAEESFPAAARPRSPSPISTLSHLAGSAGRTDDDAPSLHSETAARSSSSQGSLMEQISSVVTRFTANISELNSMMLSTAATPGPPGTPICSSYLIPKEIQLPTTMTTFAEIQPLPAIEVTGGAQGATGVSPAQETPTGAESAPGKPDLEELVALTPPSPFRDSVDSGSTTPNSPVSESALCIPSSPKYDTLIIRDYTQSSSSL
measurement notes: Negative allosteric modulation of rat mGluR5 expressed in HEK293 assessed as decrease in intracellular calcium incubated for 30 mins by Fluo-6 calcium dye based FLIPR assay
endpoint name: log10(IC50) (log10 of the value in nM)
Hey, these are logged values: log10 of IC50, nM being the unit before logging.

Quick one: log10(IC50) of "COc1ccc(NC(=O)c2cc3c(C#Cc4ccccn4)ncnc3n2C)cc1" ?
2.96

Quick one: log10(IC50) of "CN(C)c1ccc(NC(=O)c2cc3c(C#Cc4ccc(F)cc4)ncnc3n2C)cc1" ?
2.13

Quick one: log10(IC50) of "COc1ccc(NC(=O)c2cc3c(C#Cc4ccc(C)cc4)ncnc3n2C)cc1" ?
2.55

Quick one: log10(IC50) of "COc1ccc(C#Cc2ncnc3c2cc(C(=O)Nc2ccc(N(C)C)cc2)n3C)cc1" ?
2.92

Quick one: log10(IC50) of "COc1ccc(C#Cc2ncnc3c2cc(C(=O)Nc2ccccc2)n3C)cc1" ?
2.88

Quick one: log10(IC50) of "COc1ccc(NC(=O)c2cc3c(C#Cc4ccccc4)ncnc3n2C)cc1" ?
1.06

Quick one: log10(IC50) of "COc1ccc(C#Cc2ncnc3c2cc(C(=O)Nc2ccc(C)cc2)n3C)cc1" ?
2.38

Quick one: log10(IC50) of "Cn1c(C(=O)Nc2ccc(F)cc2)cc2c(C#Cc3ccc(F)cc3)ncnc21" ?
1.96

***
Quick one: log10(IC50) of "CN(C)c1ccc(NC(=O)c2cc3c(C#Cc4ccccn4)ncnc3n2C)cc1" ?
3.39

Quick one: log10(IC50) of "COc1ccc(C#Cc2ncnc3c2cc(C(=O)Nc2ccc(F)cc2)n3C)cc1" ?
2.68
